From: ChEMBL document CHEMBL1201862

# System: U-251
# Experimental details: NCI tumour cell line growth inhibition, 48 h
Calls of active or inactive are those of the source. Cut-off read from the data, not from the text of the source: active = GI50 up to about 1.1 µM and inactive = higher.
Choose one outcome from this list and give only that: t for active, f for inactive

Reference set, count: 8
{"columns": ["Compound", "Assigned category"],
 "data": [
  ["CCCCC/C=C\\C=C1\\C(=O)C=C[C@@H]1C/C=C\\CCCC(=O)O", "f"],
  ["CC(=S)N/C=C1/C(=O)C=C(C)OC1=O", "f"],
  ["CC1(C)CC23C4COC(=O)C2CCC1C3CC4=O (centres undefined)", "f"],
  ["Cc1ccc(N/C(SCc2ccccc2)=C(\\C(Cl)=C(Cl)Cl)[N+](=O)[O-])c(C)c1", "f"],
  ["Cc1nc2ccccc2c(=O)n1-c1ccccc1F", "f"],
  ["c1ccc(C2C(=P(c3ccccc3)(c3ccccc3)c3ccccc3)P=PC2[P+](c2ccccc2)(c2ccccc2)c2ccccc2)cc1.c1ccc([B-](c2ccccc2)(c2ccccc2)c2ccccc2)cc1 (centres undefined)", "t"],
  ["Cc1ccccc1N(C)S(=O)(=O)c1ccccc1[N+](=O)[O-]", "f"],
  ["CCCCCCCCCCCCC/C=C/[C@H]1[C@@H](C(=O)OC)N1[S+]([O-])c1ccc(C)cc1 (some centres undefined)", "f"]
]}

Then there is this compound:
Query: Record lookup: outcome of this test for Cc1ccc2[nH]c3c(c2c1)C1CCC(C(C)(C)C)CC1C1C(=O)N(c2ccc(Oc4ccccc4)cc2)C(=O)C31 (centres undefined) ?
Response: f

----------
GI50 reference
# Tested on: U-251
# Experimental details: NCI tumour cell line growth inhibition, 48 h
Calls of active or inactive are those of the source. Cut-off read from the data, not from the text of the source: active = GI50 up to about 1.1 µM and inactive = higher.

{"columns": ["Smiles structure", "Target or test system", "Reported measurement"],
 "data": [
  ["O=S(=O)(c1ccc(Br)cc1)n1c2ccc(Br)cc2c2nc3ccccc3nc21", "U-251", "23.2 µM (inactive)"],
  ["CCCc1c(C(=O)OCC)[nH]c(-c2ccc(-c3[nH]c(C(=O)OCC)c(CCC)c3C(=O)OCC)o2)c1C(=O)OCC", "U-251", "> 100 µM (inactive)"],
  ["CCCCc1ccc(-n2c3nc(=O)n(C)c(=O)c-3nc3ccccc32)cc1", "U-251", "10.6 µM (inactive)"]
]}

Query: Consider the compound shown here: "C[C@H](Nc1nc(N)c(N=O)c(=O)n1C)C(=O)O" What is its recorded GI50?
Response: > 10 µM (inactive)

Query: Consider the compound shown here: "COc1ccc(-c2coc3cc(O)cc(O)c3c2=O)cc1" What is its recorded GI50?
Response: > 10 µM (inactive)

----------
GI50 reference
# System: KM-20L2
# Experimental details: NCI tumour cell line growth inhibition, 48 h
Calls of active or inactive are those of the source. Rule as the data show it: active = GI50 up to about 1.1 µM and inactive = higher.

{"columns": ["Compound", "GI50"],
 "data": [
  ["O=C1CCC(=O)N1CNc1cccc(NCN2C(=O)CCC2=O)c1", "11 µM (inactive)"],
  ["CCCCSCC(NC(=O)/C=C/c1c(C)[nH]c(=O)[nH]c1=O)C(=O)OC (stereo not given)", "61.7 µM (inactive)"],
  ["COc1cccc2c(SCC(=O)Nc3ccccc3-c3ccccc3NC(=O)CSc3c4ccccc4nc4c(OC)cccc34)c3ccccc3nc12", "> 100 µM (inactive)"],
  ["CC1(C)CC23C4COC(=O)C2CCC1C3CC4=O (stereo not given)", "21.4 µM (inactive)"]
]}

Now let's try a different one.
Query: Consider the compound shown here: "Sc1nnc(-c2cccnc2)[nH]1" What is its recorded GI50?
Response: > 100 µM (inactive)

----------
# Tested on: UO-31
# Experimental details: NCI tumour cell line growth inhibition, 48 h
The source made the active and inactive calls. No stated cut-off is given here; in the data, active = GI50 up to about 1.1 µM and inactive = higher.
GI50 reference

{"columns": ["Compound", "GI50"],
 "data": [
  ["CC1(C)OC(CCO)CN1C(=O)OCc1ccccc1 (configuration not stated)", "> 100 µM (inactive)"]
]}

Query: Consider the compound shown here: CC1=C2CC(C)(C)CC(=O)C2(C)CCC1=O (configuration not stated) What is its recorded GI50?
Response: > 100 µM (inactive)

Query: Consider the compound shown here: "O=C1NCc2ccccc2S(=O)(=O)n2cccc21" What is its recorded GI50?
Response: > 100 µM (inactive)

Query: Consider the compound shown here: "CCN(CC)CCCOc1cc2c(cc1OC)C(=O)N1CCC[C@H]1C=N2" What is its recorded GI50?
Response: 39.9 µM (inactive)

Query: Consider the compound shown here: "COc1ccc2c(c1)[n+]([O-])c(C(=O)C/C(=N/NC(=O)C[N+](C)(C)C)C(=O)Nc1cccc(C)c1C)c(C)[n+]2[O-]" What is its recorded GI50?
Response: > 100 µM (inactive)

----------
GI50, HCT-15, per-entry values.

Query: Give the reported GI50 for "O=C(Nn1c(-c2ccccc2)nc2ccccc2c1=O)c1ccccc1O" (system: HCT-15).
Response: 29.4 µM

Query: Give the reported GI50 for Fc1ccccc1C1SCc2nc3cc4ccccc4cc3n21 (configuration not stated) (system: HCT-15).
Response: 94.8 µM

Query: Give the reported GI50 for "Nc1c2ccccc2nc2ccc(C(=O)Nc3ccc(S(N)(=O)=O)cc3)cc12" (system: HCT-15).
Response: > 100 µM

Query: Give the reported GI50 for CC(=O)NC(C)(C)C1CC=C(C)CC1 (configuration not stated) (system: HCT-15).
Response: > 100 µM

Query: Give the reported GI50 for "COc1ccc(C(=O)c2[nH]c(Nc3ccc(Cl)cc3)c(C(=S)Nc3ccccc3)c2N)cc1" (system: HCT-15).
Response: > 100 µM

----------
# Tested on: A549
# Experimental details: NCI tumour cell line growth inhibition, 48 h
Active and inactive are the calls of the source. Rule as the data show it: active = GI50 up to about 1.1 µM and inactive = higher.
Readout name: GI50

These recorded examples may help you get a feel for the data.
{"columns": ["Compound", "Reported measurement"],
 "data": [
  ["CSc1c(C#N)c(N)nc2c(/N=N\\c3ccc(Cl)cc3)c(N)nn12", "25 µM (inactive)"],
  ["C=CC[C@H]1C[C@@]2(C)OC[C@H](C(C)C)N2C1=O", "> 100 µM (inactive)"],
  ["CCCCCCCCCCCCC(O)C1CCC(C(O)CCCCC(O)CCCCCC2CC(CC(C)=O)C(=O)O2)O1 (stereo not given)", "3.21 µM (inactive)"],
  ["Nc1nc2c(ncn2C2OC(CO)C(O)C2O)c(=O)o1 (stereo not given)", "> 100 µM (inactive)"]
]}

Query: Consider the compound shown here: "COc1ccc2c(c1)CCC(CN1CCN(CCOC(c3ccc(F)cc3)c3ccc(F)cc3)CC1)=C2" What is its recorded GI50?
Response: 27.5 µM (inactive)

Query: Consider the compound shown here: "O=C(O)c1nn(-c2ccccc2)nc1-c1nn(-c2ccccc2)nc1C(=O)O" What is its recorded GI50?
Response: > 100 µM (inactive)

----------
GI50 reference
# Tested on: SNB-19
# Experimental details: NCI tumour cell line growth inhibition, 48 h
Calls of active or inactive are those of the source. Rule as the data show it: active = GI50 up to about 1.1 µM and inactive = higher.

Query: Give the reported GI50 for CC(C(=O)C(C)O[Si](c1ccccc1)(c1ccccc1)C(C)(C)C)=P(c1ccccc1)(c1ccccc1)c1ccccc1 (stereo not given) (system: SNB-19).
Response: 3.96 µM (inactive)

Query: Give the reported GI50 for Cc1ccc(C)c(NC(=O)CC/C(=N\NC(=O)C(N)=O)C(C)C(=O)c2ccc(O)cc2)c1 (stereo not given) (system: SNB-19).
Response: > 100 µM (inactive)

Query: Give the reported GI50 for CC(=O)OC[C@]1(O)CC[C@@]23CC1C[C@@H]2CCC1C(C)(C)CCC[C@@]13C (stereo not given in full) (system: SNB-19).
Response: 14.5 µM (inactive)

----------
# Test system: HT-29
# Experimental details: NCI tumour cell line growth inhibition, 48 h
The source made the active and inactive calls. Rule as the data show it: active = GI50 up to about 1.1 µM and inactive = higher. Where a SMILES comes first, the peptide text is derived from it. [ ]: non-standard residue; d: D form. The star is where a group is joined. ξ: configuration not given here. ξF = NC(Cc1ccccc1)C(=O)O; Cbz = O=C(OCc1ccccc1)*; Aib = CC(C)(N)C(=O)O
Choose one outcome from this list and give only that: TRUE for active, FALSE for inactive

Reference set, count: 6
{"columns": ["Molecule", "Assigned category"],
 "data": [
  ["O=C(O)Cc1cccc2c(=O)c3cccc([N+](=O)[O-])c3[nH]c12", "FALSE"],
  ["[O-][n+]1ccccc1S [PYRITHIONE ZINC]", "TRUE"],
  ["CC1Cc2c(N)nc(N3CCOCC3)nc2NC1=O (stereo not given)", "FALSE"],
  ["O=C(NCCNCCCNC(=O)c1cc(-c2ccccc2)nc2ccccc12)c1cccc(OCc2ccccc2)c1OCc1ccccc1", "FALSE"],
  ["CC(=O)NC1C(OCc2ccccc2)OC(CO)C(O)C1OC(C)C(=O)NC(C)C(=O)N[C@@H](CCC(=O)OCCCNC1c2ccccc2Nc2cccc([N+](=O)[O-])c21)C(N)=O (stereo not given in full)", "TRUE"],
  ["COc1ccc(NC(=O)NNS(=O)(=O)c2ccc(C)cc2)cc1", "FALSE"]
]}

Query: Record lookup: outcome of this test for "Cc1ccccc1N(C)S(=O)(=O)c1ccccc1[N+](=O)[O-]" ?
Response: FALSE

Query: Record lookup: outcome of this test for "COc1ccc2c(c1)CCCc1c-2nc2ccccc2c1N" ?
Response: FALSE

Query: Record lookup: outcome of this test for COc1ccc(C2Oc3c(OC)cc(CCCO)cc3C2CO)cc1OC (stereo not given) ?
Response: FALSE

Query: Record lookup: outcome of this test for COC(=O)C(C)(C)NC(=O)C(Cc1ccccc1)NC(=O)C(C)(C)NC(=O)OCc1ccccc1 (stereo not given) (Cbz-[Aib]-[ξF]-[Aib]-OMe) ?
Response: FALSE
